Source: the supplement of paper PMC9694430

Measured thermal shift delta Tm accompanies every entry in the list below.
# Test system: LOC_OS01G60700-cb002;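 note: purified Escherichia coli-expressed rice kinase domain construct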
# experimental-protocol: thermal shift delta Tm vs DMSO control; higher = stronger stabilization (binding)
# test-context: 12.5 µM; protein concentration 2 µM
Give the number; °C is assumed, so skip it.

Worked examples, 5 molecules total:
[[record]]
molecule = "O=S(=O)(NCCNC/C=C/c1ccc(Br)cc1)c1cccc2cnccc12"
system_under_test = "LOC_OS01G60700-cb002"
uom = "°C"
reported_measurement = 0.98

[[record]]
molecule = "Cc1ccc(NC(=O)c2ccc(CN3CCN(C)CC3)cc2)cc1Nc1nc(-c2cccnc2)cs1"
system_under_test = "LOC_OS01G60700-cb002"
uom = "°C"
reported_measurement = 0.59

[[record]]
molecule = "CN(c1ccccc1CNc1nc(Nc2ccc3c(c2)CC(=O)N3)ncc1C(F)(F)F)S(C)(=O)=O"
system_under_test = "LOC_OS01G60700-cb002"
uom = "°C"
reported_measurement = 1.26

[[record]]
molecule = "CNc1nc(-c2ccc3c(N)n[nH]c3c2)cc(N2C[C@@H](C(=O)NC3CCCCC3)CC[C@H]2C)n1"
system_under_test = "LOC_OS01G60700-cb002"
uom = "°C"
reported_measurement = 2.12

[[record]]
molecule = "O=C1NC(=O)C(=Cc2ccc(-c3ccc(F)cc3)o2)S1 (stereo in doubt)"
system_under_test = "LOC_OS01G60700-cb002"
uom = "°C"
reported_measurement = 0.92


Data request, read-out thermal shift delta Tm, for COc1cc2ncnc(Nc3ccc(Oc4ccccc4)cc3C)c2cc1OC
0.09

Please look up its thermal shift delta Tm: Cn1cc(-c2ccc(F)c(C(F)(F)F)c2)nc1C1CCN(c2ncnc3[nH]ncc23)CC1
0.96

I have this molecule here, Cc1ccc(C(=O)Nc2ccc(Oc3cc4cnn(C)c4cc3-c3cn[nH]c3)c(F)c2)c(=O)n1-c1ccc(F)cc1 , and I need its recorded thermal shift delta Tm.
1.29

What does the data say about its thermal shift delta Tm? Entry: Cc1cc(Nc2ncc(Cl)c(Nc3ccccc3S(=O)(=O)C(C)C)n2)c(OC(C)C)cc1C1CCNCC1
1.4

Form field: reported thermal shift delta Tm of CC(C)(C)Cn1c(N)nc2ccc(-c3[nH]c(C(C)(C)C)nc3-c3ccc(F)cc3)nc21
0.1

What value of thermal shift delta Tm has been reported for the following molecule? CN(C[C@@H]1COCCO1)S(=O)(=O)Nc1ccc2ccc3ncc(-c4cnn(C)c4)cc3c(=O)c2c1
1.15
